The measurements presented in this section are drawn from ChEMBL document CHEMBL1772944.

Experiment: Cytotoxicity against human HepG2(2.2.15) cells after 8 days by MTT assay
Format: cell-based
Checkbox rule: CC50 at 192 h lower than 40 µM = True; CC50 at 192 h not lower than 40 µM = False.

COMPOUND	CATEGORY
O=c1c(O)c(-c2ccc(O)c(O)c2)oc2cc(O)cc(O)c12 [QUERCETIN]	True
COc1c(-c2ccc(O)c(O)c2)oc2cc(O[C@@H]3O[C@H](CO)[C@@H](O)[C@H](O)[C@H]3O)cc(O)c2c1=O [TRANSILIN]	True
O=c1c2c(oc3cc(O)cc(O)c13)-c1ccc(O)c(O)c1CO2 [OPHIOGLONIN]	True

Criterion: CC50 at 192 h strictly below 40 µM. Is it met by O=c1c(CO)c(-c2ccc(O[C@@H]3O[C@H](CO)[C@@H](O)[C@H](O)[C@H]3O)c(O)c2)oc2cc(O[C@@H]3O[C@H](CO)[C@@H](O)[C@H](O)[C@H]3O[C@@H]3O[C@H](CO)[C@@H](O)[C@H](O)[C@H]3O)cc(O)c12 [PEDUNCULOSUMOSIDE E] ?
False

Is CC50 at 192 h of COc1c(-c2ccc(O)c(O)c2)oc2cc(O)cc(O)c2c1=O [3-O-METHYLQUERCETIN] strictly below 40 µM?
True

Field: below-cutoff. Rule: recorded CC50 at 192 h strictly less than 40 µM. Subject: O=c1c(CO)c(-c2ccc(O[C@@H]3O[C@H](CO)[C@@H](O)[C@H](O)[C@H]3O)c(O)c2)oc2cc(O[C@@H]3O[C@H](CO)[C@@H](O)[C@H](O)[C@H]3O)cc(O)c12 [PEDUNCULOSUMOSIDE F]
False
